Assay: Cellular Toxicity (caspase-3) Jurkat (AID 655);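 also: cells exposed to compound for 16 h at 37 °C before reading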
Conditions: Jurkat caspase-3 activation, luminescence; series mostly up to 92.2 µM
Results filed as inconclusive are left out. Activity calls are given as the source filed them. Calls follow the shape of the dose curve; as a rule, active = well fitted activation curve with a large enough effect; inconclusive = small, poorly fitted or top-dose-only effect; inactive = flat fitted curve, though single readings scatter.
Pick one: yes (1) (active), no (0) (inactive)

Reference set, count: 8
INSERT INTO results (compound, cat) VALUES
  ('[Cl-].[Cl-].[Hg+2]', 'no (0)'),
  ('ClCC1CO1 (stereo not given)', 'no (0)'),
  ('C[C@]12CCC(=O)C[C@@H]1CC[C@@H]1[C@@H]2CC[C@]2(C)[C@@H](O)CC[C@@H]12', 'no (0)'),
  ('O=C1C2CC=CCC2C(=O)N1SC(Cl)(Cl)Cl (stereo not given)', 'yes (1)'),
  ('O=[N+]([O-])c1ccccc1', 'no (0)'),
  ('COc1ccc2c(c1OC)C(=O)OC2C1c2cc3c(cc2CCN1C)OCO3 (stereo not given)', 'no (0)'),
  ('C[C@H]1CCC[C@H](O)CCCCCc2cc(O)cc(O)c2C(=O)O1', 'no (0)'),
  ('CC(C)(C)c1cc(O)ccc1O', 'no (0)');

Just curious, what result did NNC(N)=O get here?
no (0)

For CCCCCCCCOC(=O)c1ccccc1C(=O)OCCCCCCCC , what call appears in the results of this test?
no (0)

* * *

Assay: qHTS for differential inhibitors of proliferation of Plasmodium falciparum line D10 (AID 1877);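 also: parasites grown with compound for 72 h before DNA staining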; also: potency is read from the fitted curve at half-maximal effect
Details: series mostly up to 28.7 µM
Results filed as inconclusive are left out. Active and inactive are the calls of the source. Calls come from the whole dose curve; as a rule, active = well fitted curve in the direction sought with a large enough effect; inconclusive = small, poorly fitted or top-dose-only effect, or another doubt; inactive = no such curve, though single readings can be large or run the other way.
quantity_measured: Potency

Recorded results for 6 compounds are shown here.
INSERT INTO results (compound, quantity_measured, test_result) VALUES
  ('CCCN(CCC)[C@@H]1CCc2cccc(O)c2C1', 'Potency', '10 µM (active)'),
  ('C[N+]1(C)CCN(c2ccccc2)CC1', 'Potency', 'inactive'),
  ('NCCc1ccc(S(=O)(=O)F)cc1', 'Potency', 'inactive'),
  ('CCCN1CCCC2Cc3[nH]ncc3CC21 (configuration not stated)', 'Potency', 'inactive'),
  ('CC1OC1P(=O)(O)O (configuration not stated)', 'Potency', 'inactive'),
  ('N[C@@H](Cn1oc(=O)[nH]c1=O)C(=O)O', 'Potency', 'inactive');

Give the reported Potency for this compound. C[C@H](Cc1ccc2c(c1)OC(C(=O)O)(C(=O)O)O2)NC[C@H](O)c1cccc(Cl)c1
inactive

Provide only the value of recorded Potency for CCOC(=O)c1ncn2c1[C@@H]1CCCN1C(=O)c1cc(OC)ccc1-2
inactive

Specify Potency for CCCN(CCC)[C@H]1CCc2c(F)ccc(O)c2C1 and stop.
2.24 µM (active)

Read off the recorded Potency for NC(=O)COc1c(F)cc(SCCNS(=O)(=O)c2ccccc2)cc1F
inactive

Assign Potency to the following record: CC(C)(C)c1o[nH]c(=O)c1CC(N)C(=O)O (configuration not stated)
inactive

Entry C[N+]1(C)CCOC(O)(c2ccc(-c3ccc(C4(O)C[N+](C)(C)CCO4)cc3)cc2)C1 (configuration not stated) needs its Potency filled in; supply it.
inactive

Write down Potency measured for item C[N+]1(C)CCC(OC(=O)C(c2ccccc2)c2ccccc2)CC1
7.08 µM (active)

# return recorded Potency for entry CC(N)Cc1c[nH]c2ccc(O)cc12 (configuration not stated)
inactive

Give the reported Potency for this compound. c1ccc2cc(CC3=NCCN3)ccc2c1
inactive

Determine from records and report Potency for N[C@@H](CCl)C(=O)O
inactive

Read the entry Ic1ccccc1CNC1C2CCN(CC2)C1C(c1ccccc1)c1ccccc1 (configuration not stated) and write its reported Potency.
11.2 µM (active)
